Data provenance is paper PMC8231504.

# assay.comment: Modelling biodistribution using in vitro parameters
# Parameters: species or system human
# condition.notes: human, plasma (calculated from PPB); Equation (13); read-out: unbound fraction in plasma fu
readout.kind: fraction unbound

CC[C@@]1(O)C(=O)OCc2c1cc1n(c2=O)Cc2cc3ccccc3nc2-1; 0.081

###

# target.of.assay: HSA (Homo sapiens, UniProt P02768)
# Sequence (P02768 25-609): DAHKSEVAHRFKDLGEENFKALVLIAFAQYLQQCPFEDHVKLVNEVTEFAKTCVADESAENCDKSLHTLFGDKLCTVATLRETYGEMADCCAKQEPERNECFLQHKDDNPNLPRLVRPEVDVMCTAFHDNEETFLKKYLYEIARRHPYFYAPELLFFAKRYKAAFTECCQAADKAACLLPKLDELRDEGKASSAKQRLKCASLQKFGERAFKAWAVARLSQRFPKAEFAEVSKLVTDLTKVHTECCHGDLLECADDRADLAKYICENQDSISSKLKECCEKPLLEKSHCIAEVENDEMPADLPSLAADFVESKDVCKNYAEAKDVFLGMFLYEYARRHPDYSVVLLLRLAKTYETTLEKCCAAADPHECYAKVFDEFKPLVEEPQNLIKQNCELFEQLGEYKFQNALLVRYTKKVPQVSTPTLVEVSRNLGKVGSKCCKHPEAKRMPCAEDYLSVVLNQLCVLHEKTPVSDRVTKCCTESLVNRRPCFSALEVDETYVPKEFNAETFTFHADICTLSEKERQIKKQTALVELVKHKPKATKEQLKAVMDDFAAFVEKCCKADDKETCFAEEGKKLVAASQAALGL
# assay.comment: Plasma protein binding by steady-state fluorescence quenching
# condition.notes: HSA 2.0 × 10^−6 M, 37 °C; read-out: dissociation constant Kdiss
readout.kind: Kd (µM)

CC[C@@]1(O)C(=O)OCc2c1cc1n(c2=O)Cc2cc3ccccc3nc2-1 [CPT, Camptothecin]; 65.7

###

# assay.comment: Modelling biodistribution using in vitro parameters
# Design: species or system human
# condition.notes: human; Equation (12), from in vitro logD and PPB; read-out: VDSS (steady-state volume of distribution)
readout.kind: Vd (L/kg)

CC[C@@]1(O)C(=O)OCc2c1cc1n(c2=O)Cc2cc3ccccc3nc2-1 [CPT, Camptothecin]; 5.75

###

# assay.comment: Literature in vivo steady-state volume of distribution
# condition.notes: human, converted from 190 ± 46 L·m^−2 with body surface 1.9 m^2 and body weight 70 kg, ref [71], read-out: in vivo VDSS
readout.kind: Vd (L/kg)

CC[C@@]1(O)C(=O)OCc2c1cc1n(c2=O)Cc2cc3ccccc3nc2-1 [CPT, Camptothecin]; 5.16

###

# Test system: HSA
# assay.comment: Modelling biodistribution using in vitro parameters
# Set-up: species or system human
# condition.notes: human, plasma proteins (calculated from in vitro Kbind to HSA); from Kbind to HSA, Equation (14); read-out: PPB (converted)
readout.kind: fraction unbound

CC[C@@]1(O)C(=O)OCc2c1cc1n(c2=O)Cc2cc3ccccc3nc2-1 [CPT, Camptothecin]; 0.0805
